Please provide measured pIC50 for the entries that follow.
# assayed target: CDK9/CycT1 (Homo sapiens (Human), UniProt P50750)
# Sequence (P50750 whole entry): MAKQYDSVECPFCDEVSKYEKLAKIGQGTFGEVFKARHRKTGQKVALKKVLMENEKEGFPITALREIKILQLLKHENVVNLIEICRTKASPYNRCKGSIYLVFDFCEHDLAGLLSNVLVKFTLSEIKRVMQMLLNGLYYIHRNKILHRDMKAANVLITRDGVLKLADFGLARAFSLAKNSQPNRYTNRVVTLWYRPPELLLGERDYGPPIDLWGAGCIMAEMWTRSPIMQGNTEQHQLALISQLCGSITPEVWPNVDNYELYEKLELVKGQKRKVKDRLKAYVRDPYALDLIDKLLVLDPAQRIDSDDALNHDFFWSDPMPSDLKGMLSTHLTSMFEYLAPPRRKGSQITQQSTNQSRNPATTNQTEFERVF
# Sequence (O60563 whole entry partner): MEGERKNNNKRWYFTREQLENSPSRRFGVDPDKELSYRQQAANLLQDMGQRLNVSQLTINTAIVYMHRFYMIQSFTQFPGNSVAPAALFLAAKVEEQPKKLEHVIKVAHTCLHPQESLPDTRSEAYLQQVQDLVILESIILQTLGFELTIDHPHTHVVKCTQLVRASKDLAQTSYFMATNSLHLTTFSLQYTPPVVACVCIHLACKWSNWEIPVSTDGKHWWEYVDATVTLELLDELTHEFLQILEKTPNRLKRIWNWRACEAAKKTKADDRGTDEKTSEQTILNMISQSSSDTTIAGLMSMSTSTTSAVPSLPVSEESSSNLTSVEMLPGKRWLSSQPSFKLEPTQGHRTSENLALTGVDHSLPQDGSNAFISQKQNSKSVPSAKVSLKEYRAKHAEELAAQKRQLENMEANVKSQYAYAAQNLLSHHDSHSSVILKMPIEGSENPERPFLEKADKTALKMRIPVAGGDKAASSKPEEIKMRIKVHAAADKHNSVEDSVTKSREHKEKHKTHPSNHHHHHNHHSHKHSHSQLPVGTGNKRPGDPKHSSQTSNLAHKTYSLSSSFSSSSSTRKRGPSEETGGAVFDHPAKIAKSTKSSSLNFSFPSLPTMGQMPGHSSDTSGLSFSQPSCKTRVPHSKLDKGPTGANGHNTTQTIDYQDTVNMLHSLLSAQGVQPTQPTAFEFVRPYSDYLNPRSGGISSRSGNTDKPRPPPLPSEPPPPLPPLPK
# run description: ADP-Glo Kinase Assay
# Procedure: ADP-Glo assay kit was purchased from Promega and the CDK9/CycT1 protein and PDKtide substrate were purchased from SignalChem. […] The reaction is started by pre-incubating 4 μL of protein (20 nM), 2 μL of substrate (100 μM), and 2 μL of serial diluted drug in 1× assay buffer (50 mM HEPES, 3 mM MgCl2, 3 mM MnCl2, and 1 mM DTT) for 30 minutes. […] The reaction is quantified by measuring luminescence and the IC50 is calculated using GraphPad Prism software.
pIC50: −log10 of the molar value.

Example entries and their recorded answers appear below.
> print(dat)
                                   compound  measured.attribute        result
1  Cc1cc2nc(-c3ccnc(N[C@H]4CC[C@H](N)C4)n3)ccn2n1               pIC50  5.00 to 5.30
2  O[C@@H]1CNCC[C@H]1CNc1nccc(-c2ccn3nccc3n2)n1 (relative stereo)               pIC50  5.30 to 6.00
3  N[C@H]1CC[C@@H](Nc2nccc(-c3ccn4nccc4n3)n2)C1               pIC50        > 6.00
4  Cc1cnn2ccc(-c3ccnc(N[C@H]4CC[C@H](N)C4)n3)nc12               pIC50        > 6.00
5  CC(C)c1cnn2ccc(-c3ccnc(N[C@H]4CC[C@H](NC5CCOCC5)CC4)n3)nc12               pIC50        > 6.00

Consider the compound N[C@H]1CC[C@H](Nc2nccc(-c3ccn4nccc4n3)n2)C1 and give its measured pIC50.
> 6.00
